# Study System: Short transient receptor potential channel 4 (Mus musculus) (UniProt Q9QUQ5)
# Sequence (Q9QUQ5 whole entry, looked up): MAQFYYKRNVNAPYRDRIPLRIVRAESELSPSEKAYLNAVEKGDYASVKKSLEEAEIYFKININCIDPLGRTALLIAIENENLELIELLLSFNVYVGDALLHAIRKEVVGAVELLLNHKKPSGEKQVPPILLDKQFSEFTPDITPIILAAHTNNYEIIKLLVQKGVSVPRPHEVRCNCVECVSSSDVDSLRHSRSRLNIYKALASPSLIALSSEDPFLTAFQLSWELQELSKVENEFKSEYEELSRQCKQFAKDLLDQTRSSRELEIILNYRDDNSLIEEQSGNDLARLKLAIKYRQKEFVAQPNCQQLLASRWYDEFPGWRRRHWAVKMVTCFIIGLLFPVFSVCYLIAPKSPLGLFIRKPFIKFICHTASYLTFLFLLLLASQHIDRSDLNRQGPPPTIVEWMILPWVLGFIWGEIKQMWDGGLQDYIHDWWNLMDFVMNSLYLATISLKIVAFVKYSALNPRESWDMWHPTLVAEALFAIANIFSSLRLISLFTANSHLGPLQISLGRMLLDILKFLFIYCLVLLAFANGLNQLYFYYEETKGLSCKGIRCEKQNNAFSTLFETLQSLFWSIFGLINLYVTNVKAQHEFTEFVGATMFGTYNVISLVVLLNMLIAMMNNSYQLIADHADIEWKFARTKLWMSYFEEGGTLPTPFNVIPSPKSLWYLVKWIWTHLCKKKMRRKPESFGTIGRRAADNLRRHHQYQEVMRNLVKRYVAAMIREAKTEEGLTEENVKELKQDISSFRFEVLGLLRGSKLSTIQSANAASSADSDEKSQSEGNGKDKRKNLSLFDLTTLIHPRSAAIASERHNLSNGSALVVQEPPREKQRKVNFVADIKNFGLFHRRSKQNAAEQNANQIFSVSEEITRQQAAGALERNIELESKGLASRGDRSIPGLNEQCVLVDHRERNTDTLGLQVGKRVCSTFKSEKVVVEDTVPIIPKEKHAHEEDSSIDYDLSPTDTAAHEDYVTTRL
# Assay Info: calcium entry via TRPC4 opening agents – cell-based, HEK293 TRPC4/mu-opioid, Fluo-4 calcium, dose response (AID 434937);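 further: HEK293 cells coexpressing mouse TRPC4 with mu-opioid receptor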
# Test Settings: HEK293 TRPC4 cells, Fluo-4 calcium fluorescence ratio; series mostly up to 20 µM
Results with a measured potency or affinity are listed apart. Active and inactive are the calls of the source.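 How the source made its calls: active means primary screen activator hit with a dose response curve and TRPC4 channel activation at any tested dose; inactive means no activation, no dose response, or not a primary hit.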
Measured Endpoint: outcome

Example entries begin here.
Cc1[nH]c2ccc(C(=O)OC(C)C(=O)N(C)c3ccccc3)cc2c1C (stereo not given) = inactive
CC(=O)N1N=C(c2ccc(Br)cc2)OC1(C)CC(=O)Nc1ccccc1 (stereo not given) = inactive
CCOC(=O)Cc1csc(NC(=O)NC2(C(F)(F)F)Oc3cc(Cl)c(Cl)cc3O2)n1 = inactive
O=C(Nc1nc(N2C(=O)c3ccccc3C2=O)n(-c2ccccc2)n1)c1ccc(Cl)cc1 = inactive

outcome for CCCc1nc2oc3c(NCCN(C)C)ncnc3c2c2c1CCCC2 is inactive

====

# Study System: Short transient receptor potential channel 4 (Mus musculus) (UniProt Q9QUQ5)
# Assay Info: blockers of DAMGO-evoked TRPC4 calcium flux – cell-based, Fluo4, HEK293 TRPC4beta/mu-opioid, confirmation (AID 2636)
# Test Settings: at 10 µM
Active and inactive are the calls of the source.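 Rule for the calls: active = calcium signal cut by more than 3 SD below the full-agonist control yet still positive, in both repeats and the earlier primary screen; inactive = the rest.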
Select the matching outcome among active, inactive

Solved cases (4 shown):
OCc1ccccc1CNCc1ccccc1 = active
Cc1ccsc1C(=O)OCC(=O)NCCNC(=O)COC(=O)c1sccc1C = inactive
O=C(Nc1ccccc1Oc1cccnc1)C1CCCN(Cc2ccc(F)cc2)C1 (stereo unspecified) = active
CCCCN1C(=O)C(=O)N(CC(=O)Nc2cc(OCC)c(N3CCOCC3)cc2OCC)C1=O = inactive

Record lookup: outcome of this test for Cn1c(=O)c2c(nc(CN3CCc4ccccc4C3)n2Cc2cccc(Cl)c2)n(C)c1=O ? inactive

Write down the call the test reported for this molecule. Item: O=C(c1ccc2c(c1)OCO2)C1CCCN(Cc2ccccc2OC(F)F)C1 (stereo unspecified) active

What outcome does the record of this test show for CC(=O)Cc1nsc(NC(=O)c2csc3c2CCCC3)n1 ? inactive

# lookup: test call for CCOc1ccc(NS(=O)(=O)c2ccc(NC(=S)NC(=O)CC(C)C)cc2)cc1 inactive

Per the assay record, what outcome was assigned to O=C(NCc1ccccc1)C1=C[C@H](c2ccc(C(F)(F)F)cc2)C[C@H](OCc2ccc(CO)cc2)O1 ? inactive

What classification did CCCN(c1nc(C)cc(OC)n1)S(=O)(=O)c1ccccc1 end up with in this test? active

Write down the call the test reported for this molecule. Item: S=C(Nc1ccccc1)Nc1cc(Cl)ccc1Oc1ccccc1 active

====

# Study System: Short transient receptor potential channel 4 (Mus musculus)
# Assay Info: calcium entry via TRPC4 opening agents – cell-based, HEK293 TRPC4/mu-opioid, Fluo-4 calcium, dose response (AID 434937);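 further: HEK293 cells coexpressing mouse TRPC4 with mu-opioid receptor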
# Test Settings: HEK293 TRPC4 cells, Fluo-4 calcium fluorescence ratio; series mostly up to 20 µM
Results with a measured potency or affinity are listed apart. Active and inactive are the calls of the source.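 The calls were made as follows: active = primary screen activator hit with a dose response curve and TRPC4 channel activation at any tested dose; inactive = no activation, no dose response, or not a primary hit.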
Measured Endpoint: outcome

Answered examples (10):
O=C(N/N=C/c1ccccc1F)NC1CCCCC1 = inactive
Cc1ccc(C(C)C)c(OCCCCN2CCNCC2)c1 = inactive
CCOC(=O)c1c(NC(=O)C2CC(Cl)=CCC2C(=O)O)sc2c1CCCCC2 (stereo not drawn) = inactive
COC(=O)CSc1nnc(CNS(=O)(=O)c2ccc(Br)cc2)n1C = inactive
C#Cc1ccc(CN2CCCC(C(=O)Nc3ccccc3Oc3cccnc3)C2)cc1 (stereo not drawn) = inactive
Cc1ccc(C(C(=O)NC(C)(C)C)N(C(=O)CCC(=O)Nc2ccccn2)c2ccccc2F)cc1 (stereo not drawn) = inactive
Cc1ccccc1-n1c(=O)c2c(n3cnnc13)-c1ccccc1CC21CCCCC1 = inactive
O=c1[nH]ncc(N2CCN(Cc3ccccc3)CC2)c1Cl = inactive
Cc1ncsc1CCOC(=O)c1cccc([N+](=O)[O-])c1 = inactive
COc1ccc(CN2CCN(C(=O)c3ccc(F)cc3)CC2)c(OC)c1 = inactive

Now for the compound whose outcome we want.
The reported value for O=S(=O)(Cc1ccccc1)N1CCC(c2nc(-c3cccs3)no2)CC1 in terms of outcome is inactive
